Target: PD-1/PD-L1 interaction (Homo sapiens, UniProt Q9NZQ7)
Construct: expressed in transfected cells; host or cells: CHO cells (aAPC-PD-L1) co-cultured with Jurkat cells overexpressing PD-1 and an NFAT-luciferase reporter
Sequence (Q9NZQ7 19-290): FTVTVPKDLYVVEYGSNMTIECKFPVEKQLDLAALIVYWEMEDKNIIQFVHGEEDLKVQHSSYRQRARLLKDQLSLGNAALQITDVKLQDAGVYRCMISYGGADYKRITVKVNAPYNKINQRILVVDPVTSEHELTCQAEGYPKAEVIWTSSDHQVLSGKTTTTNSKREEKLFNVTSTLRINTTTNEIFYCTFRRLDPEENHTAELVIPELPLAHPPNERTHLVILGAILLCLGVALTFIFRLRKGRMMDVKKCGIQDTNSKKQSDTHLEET
Assay: PD-1/PD-L1 NFAT reporter co-culture assay
Type: cell-based
Settings: Jurkat PD-1 NFAT-luciferase cells co-cultured with aAPC-PD-L1 CHO cells, 6 hrs at 37° C.; read-out: EC50 NFAT Luciferase
measured_parameter: EC50 (nM)

[a] Cc1c(COc2cc(OCc3cncc(C#N)c3)c(CN3CCCCC3)cc2Cl)cccc1-c1cccc(COc2cc(OCc3cncc(C#N)c3)c(CN3CCCCC3)cc2Cl)c1C [Example 15]
[b] Cc1c(COc2cc(OCc3cccnc3)c(CNCCO)cc2Cl)cccc1-c1cccc(COc2cc(OCc3cccnc3)c(CNCCO)cc2Cl)c1C [Example 22]
[c] Cc1c(-c2nc3ccc(CNC[C@@H](O)CC(=O)O)cc3s2)cccc1-c1cccc2c1CC[C@@H]2Oc1nc(OCc2cncc(C#N)c2)c(CNC[C@@H](O)CC(=O)O)cc1Cl [Example 396]
Exam item: Please list the entries, largest EC50 first. Answer by naming the labels in the order asked.
Marked response: a, b, c
(a: 5710 nM, b: 2070 nM, c: 105 nM)

[A] COc1nc(OCc2cccc(-c3cccc(COc4nc(OC)c(CN[C@](C)(CO)C(=O)O)cc4Cl)c3C)c2C)c(Cl)cc1CN[C@](C)(CO)C(=O)O [Example 43]
[B] Cc1c(COc2cc(OCc3cc(C#N)cc(C#N)c3)c(CNC[C@@H](O)CC(=O)O)cc2Cl)cccc1-c1cccc(COc2cc(OCc3cc(C#N)cc(C#N)c3)c(CNC[C@@H](O)CC(=O)O)cc2Cl)c1C [Example 220]
Exam item: Could you tell me which of A and B has the lower EC50 reading? Answer = label.
Marked response: A

---

Molecular target: PD-1/PD-L1 (Homo sapiens, UniProt Q9NZQ7)
Sequence (Q9NZQ7 19-238 limits assumed): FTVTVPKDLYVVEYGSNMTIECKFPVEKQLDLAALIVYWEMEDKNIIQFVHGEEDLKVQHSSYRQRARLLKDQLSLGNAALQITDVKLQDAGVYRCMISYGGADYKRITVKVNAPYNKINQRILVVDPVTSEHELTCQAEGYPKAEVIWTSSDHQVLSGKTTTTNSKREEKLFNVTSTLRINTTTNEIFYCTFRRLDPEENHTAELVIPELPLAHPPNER
Experiment: PD-1/PD-L1 biochemical protein-protein interaction assay (ALPHA)
Conditions: 0.3 nM His tagged PD-L1, 2.5 nM biotinylated Fc-PD-1, 60 minutes at 25° C., read-out: IC50 PD-L1-PD-1 Alpha IC50-mono PD-L1-fcP-D1
measured_parameter: IC50 (nM)

Please review the following examples before continuing.
Exam item: Can you share its IC50? I mean this compound: `COc1nc(-c2cccc(-c3cccc4c3CC[C@@H]4Oc3nc(OC)c(CN4CC[C@@H](C(=O)O)C4)cc3Cl)c2Cl)ccc1CNC[C@@H]1CCC(=O)N1`
Marked response: 0.064

Exam item: Consider the compound `Cc1c(COc2cc(OCc3cncc(C#N)c3)c(CNCCO)cc2Cl)cccc1-c1cccc(COc2cc(OCc3ccc(F)c(C#N)c3)c(CNCCO)cc2Cl)c1C` and give its measured IC50.
Marked response: 138

Exam item: Item `COc1nc(-c2cccc(-c3cccc4c3CC[C@@H]4Oc3ccc(CN[C@@](C)(CO)C(=O)O)c(OCc4cncc(C#N)c4)n3)c2C)ccc1C1=NCCN1` has what recorded IC50?
Marked response: 0.064

Exam item: Given the compound `C[C@@](CO)(NCc1cc(Cl)c(O[C@H]2CCc3c(-c4cccc(-c5ccc(OCCN6CC[C@@H](O)C6)cc5)c4Cl)cccc32)nc1OCc1cncc(S(C)(=O)=O)c1)C(=O)O` , what is its reported IC50?
Marked response: 0.064

[A] O=C(O)C[C@H](O)CNCc1ccc(C(=O)N2CCc3c(-c4cccc5c4CCN5C(=O)c4ccc(CNC[C@@H](O)CC(=O)O)cc4)cccc32)cc1
[B] COc1nc(-c2cccc(-c3cccc(N4Cc5cc(CN6CC7(C6)CN(C(C)=O)C7)ccc5C4=O)c3Cl)c2Cl)ccc1CN1CC2(C1)CN(C(C)=O)C2
Exam item: Which shows the larger IC50 value: A or B ? State your choice using its label.
Marked response: A
(A: 3.3 nM, B: 0.214 nM)

All values here come from patent US12590062B2.
